# SYSTEM_UNDER_TEST: 5-hydroxytryptamine receptor 4 (Homo sapiens, UniProt Q13639)
# Sequence (Q13639 whole entry, canonical isoform): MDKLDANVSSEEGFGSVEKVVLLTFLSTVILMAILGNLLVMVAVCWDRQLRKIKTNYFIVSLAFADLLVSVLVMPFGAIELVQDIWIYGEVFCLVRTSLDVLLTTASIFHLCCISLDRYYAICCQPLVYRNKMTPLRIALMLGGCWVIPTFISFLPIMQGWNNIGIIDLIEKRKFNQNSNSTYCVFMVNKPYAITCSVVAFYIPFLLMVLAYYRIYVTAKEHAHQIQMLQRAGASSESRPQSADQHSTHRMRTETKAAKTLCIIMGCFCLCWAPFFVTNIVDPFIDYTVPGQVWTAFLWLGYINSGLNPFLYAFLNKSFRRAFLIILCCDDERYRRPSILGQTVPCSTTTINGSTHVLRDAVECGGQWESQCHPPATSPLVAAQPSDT
# PROTOCOL_DESCRIPTION: ,Antagonism of stimulation of 5-hydroxytryptamine receptor on the L-type calcium current (I Ca) in isolated human atrial myocytes
MEASUREMENT_TYPE: pKd
Field pKd (float): negative decimal logarithm of the concentration in molar.

Input: Write pKd of COc1cc(N)c(Cl)cc1C(=O)OCCN1CCN(c2ncccn2)CC1 ; system used: 5-hydroxytryptamine receptor 4 (Homo sapiens, UniProt Q13639)
Output: 9.15

----------
# SYSTEM_UNDER_TEST: UniProt Q13639
# PROTOCOL_DESCRIPTION: Binding affinity was determined against cloned 5-hydroxytryptamine 4E receptor isoform expressed in C6 glial cells incubated with 0.2 nM [3H]GR-113808
# Type: cell-based
Listing: Ki of selected compounds
Note: unit nM is implicit; provide only the numeric part.

Examples with answers:
Input: Output measured Ki for this item: COc1cc(N)c(Cl)cc1C(=O)OCCN1CCN(c2ccccc2)CC1
Output: 14.3

Input: Output measured Ki for this item: COc1cc(N)c(Cl)cc1C(=O)OCCN1CCN(c2cccc(C(F)(F)F)c2)CC1
Output: 199

Input: Output measured Ki for this item: COc1cc(N)c(Cl)cc1C(=O)OCCN1CCN(c2ccc(Cl)cc2)CC1
Output: 715

Continuing:
Input: Output measured Ki for this item: COc1cc(N)c(Cl)cc1C(=O)OCCN1CCN(c2ccc(F)cc2)CC1
Output: 23.1

----------
Listing: Ki of selected compounds
# SYSTEM_UNDER_TEST: UniProtKB Q13639
# PROTOCOL_DESCRIPTION: Binding affinity was determined against cloned 5-hydroxytryptamine 4B receptor isoform expressed in COS-7 cells
# Assay type: cell-based
Note: unit nM is implicit; provide only the numeric part.

Input: Output measured Ki for this item: COc1cc(N)c(Cl)cc1C(=O)OCCN1CCN(c2ncccn2)CC1
Output: 8.1

Field: next compound
Input: Output measured Ki for this item: COc1cc(N)c(Cl)cc1C(=O)OCCN1CCN(c2ccccc2)CC1
Output: 55

----------
# SYSTEM_UNDER_TEST: 5-hydroxytryptamine receptor 4 (Homo sapiens)
# PROTOCOL_DESCRIPTION: Binding affinity was determined against cloned 5-hydroxytryptamine 4C receptor isoform expressed in COS-7 cells
# Type: cell-based
MEASUREMENT_TYPE: Ki

Input: Write Ki of COc1cc(N)c(Cl)cc1C(=O)OCCN1CCN(c2ccccc2)CC1 ; system used: 5-hydroxytryptamine receptor 4 (Homo sapiens)
Output: 12.5 nM

Field: next compound
Input: Write Ki of COc1cc(N)c(Cl)cc1C(=O)OCCN1CCN(c2ncccn2)CC1 ; system used: 5-hydroxytryptamine receptor 4 (Homo sapiens)
Output: 2.47 nM

----------
# SYSTEM_UNDER_TEST: 5-hydroxytryptamine receptor 4 (Homo sapiens)
# PROTOCOL_DESCRIPTION: Binding affinity was determined against cloned 5-hydroxytryptamine 4A receptor isoform expressed in COS-7 cells
# Assay type: cell-based
MEASUREMENT_TYPE: pKi
Field pKi (float): negative decimal logarithm of the concentration in molar.

Input: Output measured pKi for this item: COc1cc(N)c(Cl)cc1C(=O)OCCN1CCN(c2ccccc2)CC1
Output: 7.64

Continuing:
Input: Output measured pKi for this item: COc1cc(N)c(Cl)cc1C(=O)OCCN1CCN(c2ncccn2)CC1
Output: 8.46

----------
# SYSTEM_UNDER_TEST: 5-hydroxytryptamine receptor 4 (Homo sapiens)
# PROTOCOL_DESCRIPTION: Binding affinity was determined against cloned 5-hydroxytryptamine 4E receptor isoform expressed in C6 glial cells incubated with 0.2 nM [3H]GR-113808
# Assay type: cell-based
MEASUREMENT_TYPE: pKi
Field pKi (float): negative decimal logarithm of the concentration in molar.

Input: Output measured pKi for this item: COc1cc(N)c(Cl)cc1C(=O)OCCN1CCN(c2ccccc2Cl)CC1
Output: 6.53

Input: Output measured pKi for this item: CCOC(=O)N1CCN(CCOC(=O)c2cc(Cl)c(N)cc2OC)CC1
Output: 7.64

Input: Output measured pKi for this item: COc1cccc(N2CCN(CCOC(=O)c3cc(Cl)c(N)cc3OC)CC2)c1
Output: 8.52

Input: Output measured pKi for this item: COc1cc(N)c(Cl)cc1C(=O)OCCN1CCN(Cc2ccccc2)CC1
Output: 6.62

Input: Output measured pKi for this item: COc1ccc(N2CCN(CCOC(=O)c3cc(Cl)c(N)cc3OC)CC2)cc1
Output: 7.75

Field: next molecule
Input: Output measured pKi for this item: COc1cc(N)c(Cl)cc1C(=O)OCCN1CCN(c2cnccn2)CC1
Output: 8.85

----------
# SYSTEM_UNDER_TEST: 5-hydroxytryptamine receptor 4 (Homo sapiens, UniProt Q13639)
# PROTOCOL_DESCRIPTION: Binding affinity was determined against cloned 5-hydroxytryptamine 4E receptor isoform expressed in C6 glial cells incubated with 0.2 nM [3H]GR-113808
# Type: cell-based
MEASUREMENT_TYPE: Ki

Examples with answers:
Input: Write Ki of COc1cc(N)c(Cl)cc1C(=O)OCCN1CCN(C)CC1 ; system used: 5-hydroxytryptamine receptor 4 (Homo sapiens, UniProt Q13639)
Output: > 1 µM

Input: Write Ki of COc1cc(N)c(Cl)cc1C(=O)OCCN1CCN(C(=O)OC(C)(C)C)CC1 ; system used: 5-hydroxytryptamine receptor 4 (Homo sapiens, UniProt Q13639)
Output: > 1 µM

Continuing:
Input: Write Ki of COc1cc(N)c(Cl)cc1C(=O)OCCN1CCN(c2cccc3ccccc23)CC1 ; system used: 5-hydroxytryptamine receptor 4 (Homo sapiens, UniProt Q13639)
Output: > 1 µM

----------
# SYSTEM_UNDER_TEST: 5-hydroxytryptamine receptor 4 (Homo sapiens, UniProt Q13639)
# PROTOCOL_DESCRIPTION: Binding affinity was determined against cloned 5-hydroxytryptamine 4E receptor isoform expressed in C6 glial cells incubated with 0.2 nM [3H]GR-113808
# Format: cell-based
MEASUREMENT_TYPE: Ki (nM)
Note: unit nM is implicit; provide only the numeric part.

Examples with answers:
Input: Output measured Ki for this item: COc1cc(N)c(Cl)cc1C(=O)OCCN1CCN(c2cccnn2)CC1
Output: 1.4

Input: Output measured Ki for this item: COc1cc(N)c(Cl)cc1C(=O)OCCN1CCN(c2ccccn2)CC1
Output: 1.5

Input: Output measured Ki for this item: COc1cc(N)c(Cl)cc1C(=O)OCCN1CCN(c2cnc(Cl)nc2)CC1
Output: 9.8

Continuing:
Input: Output measured Ki for this item: COc1cc(N)c(Cl)cc1C(=O)OCCN1CCN(c2cccc(Cl)c2)CC1
Output: 162
